Test: Ca2+ Flux Assay: GÎ±15 HEK293 cells stably expressing rat mGlu2 were plated in black-walled, clear-bottomed, poly-D-lysine coated 384-well plates in 20 Î¼L of assay medium (DMEM containing 10% dialyzed FBS, 20 mM HEPES, and 1 mM sodium pyruvate) at a density of 12K cells/well. The cells were grown overnight at 37° C. in the presence of 5% CO2. The next day, medium was removed and the cells incubated with 20 Î¼L of 2.3 Î¼M Fluo-4, AM prepared as a 2.3 mM stock in DMSO and mixed in a 1:1 ratio with 10% (w/v) pluronic acid F-127 and diluted in assay buffer (Hank's balanced salt solution, 20 mM HEPES, and 2.5 mM probenecid) for 45 minutes at 37° C. Dye was removed, 20 Î¼L of assay buffer was added, and the plate was incubated for 5 minutes at room temperature.
pIC50: −log10 of the molar value.
readoutName: pIC50

> print(dat)
                             chemicalstring  readoutname  resultvalue
1  NC(=O)c1cc(-c2ccc(F)cc2)c(OCCOc2ccccc2F)cn1        pIC50         5.70
2  C[C@@H]1CN(CCCOc2cnc(C(N)=O)cc2-c2ccc(F)cc2)C[C@H](C)O1        pIC50       < 5.00
3  Cn1cc(-c2cc(C(N)=O)ncc2OCc2ccc(C(F)(F)F)nc2)cn1        pIC50       < 5.00
4  C[C@@H]1CN(CCOc2cnc(C(N)=O)cc2-c2ccc(F)cc2)C[C@H](C)O1        pIC50       < 5.00
5  C[C@@H]1CN(CCOc2cnc(C#N)cc2-c2ccc(F)cc2)C[C@H](C)O1        pIC50       < 4.52
